# Test system: strains of human rhinovirus (HRV)
# assay explanation: Antirhinoviral H1-HeLa cell culture assay (XTT cell protection, EC50), other HRV strains
# Type: cell-based, human rhinovirus in H1-HeLa cells
# condition parameters: Human rhinovirus sp., HRV9, H1-HeLa, HRV-9; read-out: EC50
measured quantity: EC50 (nM)
Reply with just the number (in nM).

Sample records with EC50:
In [3]: df
Out[3]:
                              line_notation  output_unit  reported_result
0  Cc1cc(C(=O)Nc2cccn([C@@H](Cc3ccc(F)c(F)c3)C(=O)N[C@H](/C=C/C(=O)OC3CCCCCC3)C[C@@H]3CCNC3=O)c2=O)no1           nM              546
1  C#CC[C@@H](C(=O)N[C@H](/C=C/C(=O)OC1CCCCCC1)C[C@@H]1CCNC1=O)n1cccc(NC(=O)c2cc(C)on2)c1=O           nM             1500

--- query ---
Any idea what its EC50 is? The molecule is C#CC[C@@H](C(=O)N[C@H](/C=C/C(=O)OC1CCC1)C[C@@H]1CCNC1=O)n1cccc(NC(=O)c2cc(C)on2)c1=O
133

====

# assay explanation: Cytotoxicity (CC50) in mock-infected H1-HeLa cells, XTT dye reduction
# Type: cell-based, human
# condition parameters: human, H1-HeLa cells, uninfected (mock-infected); line of CVB3
Overview of recorded CC50 at 1 day for various compounds

>>> print(df.to_string())
                                   compound  measured_quantity  reported_result
0  Cc1cc(C(=O)Nc2cccn([C@@H](Cc3ccc(F)c(F)c3)C(=O)N[C@H](/C=C/C(=O)OC(C)C)C[C@@H]3CCNC3=O)c2=O)no1 [Compound 48]      CC50 at 1 day          > 10 µM
1  C#CC[C@@H](C(=O)N[C@H](/C=C/C(=O)OC1CCC1)C[C@@H]1CCNC1=O)n1cccc(NC(=O)c2cc(C)on2)c1=O [Compound 53]      CC50 at 1 day          > 10 µM

Report CC50 at 1 day for CCOC(=O)/C=C/[C@H](C[C@@H]1CCNC1=O)NC(=O)[C@H](CC)n1cccc(NC(=O)c2cc(C)on2)c1=O [Compound 26] please.
> 10 µM

====

# assay explanation: Cytotoxicity (CC50) in uninfected MRC-5 cells, XTT dye reduction
# Type: cell-based, human
# condition parameters: human, uninfected (mock-infected) MRC-5 cells; ECHO-11 (EV-11) row
measured quantity: CC50 at 4 days

                                   compound  reported_result
0  Cc1cc(CCCOc2c(C)cc(-c3noc(C(F)(F)F)n3)cc2C)on1 [Pleconaril, reference compound]          > 10 µM

Form field: reported CC50 at 4 days of CCOC(=O)c1ccc(OCCC2CCN(c3ccc(C)nn3)CC2)cc1 [Pirodavir, reference compound]
> 10 µM

====

# Test system: H1-HeLa cells
# assay explanation: Cytotoxicity (CC50) in mock-infected H1-HeLa cells, XTT dye reduction
# Assay type: cell-based, human
# condition parameters: HRV-3
measured quantity: CC50

In [3]: df
Out[3]:
                              line_notation  measured_quantity  reported_result
0  CC[C@@H](C(=O)N[C@H](/C=C/C(=O)OC1CCC1)C[C@@H]1CCNC1=O)n1cccc(NC(=O)c2cc(C)on2)c1=O               CC50          > 10 µM
1  Cc1cc(C(=O)Nc2cccn([C@@H](Cc3ccc(F)cc3)C(=O)N[C@H](/C=C/C(=O)OC(C)C)C[C@@H]3CCNC3=O)c2=O)no1               CC50          > 10 µM

Please provide the recorded CC50 for Cc1cc(C(=O)Nc2cccn([C@@H](Cc3ccc(F)c(F)c3)C(=O)N[C@H](/C=C/C(=O)OC3CCC3)C[C@@H]3CCNC3=O)c2=O)no1 , tested on H1-HeLa cells.
> 10 µM

====

# Tested on: echovirus 9 (ECHO-9)
# assay explanation: Anti-echoviral cell culture assay (EC50), ECHO-9
# Type: cell-based
# condition parameters: Enterovirus B
pEC50: −log10 of the molar value.
Lab note: anything with pEC50 at or over 8 counts as 1; the rest go in 0.

Record excerpt, results attached:
In [3]: df
Out[3]:
                                   compound  label_value
0  C#CC[C@@H](C(=O)N[C@H](/C=C/C(=O)OC1CCC1)C[C@@H]1CCNC1=O)n1cccc(NC(=O)c2cc(C)on2)c1=O [Compound 53]            0
1  CCOC(=O)/C=C/[C@H](C[C@@H]1CCNC1=O)NC(=O)[C@H](Cc1ccc(F)c(F)c1)n1cccc(NC(=O)c2cc(C)on2)c1=O [Compound 33]            1
2  C#CC[C@@H](C(=O)N[C@H](/C=C/C(=O)OC(C)(C)C)C[C@@H]1CCNC1=O)n1cccc(NC(=O)c2cc(C)on2)c1=O [Compound 41]            0

Okay, next one:
Does Cc1cc(C(=O)Nc2cccn([C@@H](Cc3ccc(F)c(F)c3)C(=O)N[C@H](/C=C/C(=O)OC(C)C)C[C@@H]3CCNC3=O)c2=O)no1 [Compound 48] have a reported pEC50 of at least 8?
0

====

# Tested on: strains of human rhinovirus (HRV)
# assay explanation: Antirhinoviral H1-HeLa cell culture assay (XTT cell protection, EC50), other HRV strains
# Assay type: cell-based, human rhinovirus in H1-HeLa cells
# condition parameters: Human rhinovirus sp., HRV87, H1-HeLa, HRV-87; read-out: EC50
measured quantity: EC50 (nM)
Note: unit nM is implicit; provide only the numeric part.

>>> df
                              line_notation  measured_quantity  output_unit  reported_result
0  C#CC[C@@H](C(=O)N[C@H](/C=C/C(=O)OC(C)(C)C)C[C@@H]1CCNC1=O)n1cccc(NC(=O)c2cc(C)on2)c1=O               EC50           nM               60
1  C#CC[C@@H](C(=O)N[C@H](/C=C/C(=O)OCC)C[C@@H]1CCNC1=O)n1cccc(NC(=O)c2cc(C)on2)c1=O               EC50           nM               21

We now examine a further compound.
Any idea what its EC50 is? The compound is CCOC(=O)/C=C/[C@H](C[C@@H]1CCNC1=O)NC(=O)[C@@H]1CCc2c(Cl)cc(NC(=O)c3cc(C)on3)c(=O)n21
17

====

# Tested on: enterovirus type 70 (EV 70)
# assay explanation: Anti-enteroviral cell culture assay (XTT, EC50), EV 70
# Assay type: cell-based, enterovirus 70 in MRC-5 cells
# condition parameters: Enterovirus D, MRC5; ENT-70, MRC-5 cells
# Experimental: Anti-Echoviral and Anti-Enteroviral Cell Culture Assays Echovirus type 11 (ECHO 11) was purchased from ATCC (Rockville, Md.). Virus stocks were propagated and antiviral assays were performed in MRC-5 cells (ATCC). […] The ability of the compounds of this invention to protect cells against ECHO 11 infection was measured by the XTT dye reduction method (Weislow et al., J. Natl. Cancer Inst. (1989), vol. 81, 577-586). […] The therapeutic index (TI) was calculated by dividing the CC50 by the EC50. […]
measured quantity: EC50 (nM)
Field: numeric (nM). Do not append units.

Give its EC50 value. Item: CCOC(=O)c1ccc(OCCC2CCN(c3ccc(C)nn3)CC2)cc1 [Pirodavir, reference compound]
60

====

# Tested on: strains of human rhinovirus (HRV)
# assay explanation: Antirhinoviral H1-HeLa cell culture assay (XTT cell protection, EC50), other HRV strains
# Format: cell-based, human rhinovirus in H1-HeLa cells
# condition parameters: Human rhinovirus sp., HRV13, H1-HeLa, HRV-13; read-out: EC50
measured quantity: EC50 (nM)
API: value field is a number in nM; no unit string.

These recorded examples may help you get a feel for the data.
>>> df
                                   compound  output_unit  reported_result
0  Cc1cc(C(=O)Nc2cccn([C@@H](Cc3ccc(F)c(F)c3)C(=O)N[C@H](/C=C/C(=O)OC(C)C)C[C@@H]3CCNC3=O)c2=O)no1 [Compound 48]           nM               44
1  Cc1cc(C(=O)Nc2cccn([C@@H](Cc3ccc(F)cc3)C(=O)N[C@H](/C=C/C(=O)OC(C)C)C[C@@H]3CCNC3=O)c2=O)no1 [Compound 67]           nM              162
2  C#CC[C@@H](C(=O)N[C@H](/C=C/C(=O)OC1CCC1)C[C@@H]1CCNC1=O)n1cccc(NC(=O)c2cc(C)on2)c1=O [Compound 53]           nM              157

Would you kindly share the measured EC50 for Cc1cc(C(=O)Nc2cccn([C@@H](Cc3ccc(F)c(F)c3)C(=O)N[C@H](/C=C/C(=O)OC3CCC3)C[C@@H]3CCNC3=O)c2=O)no1 [Compound 58] ?
24

Can you share its EC50? I mean this compound: Cc1cc(C(=O)Nc2cccn([C@@H](Cc3ccccc3)C(=O)N[C@H](/C=C/C(=O)OC(C)C)C[C@@H]3CCNC3=O)c2=O)no1 [Compound 66]
57

What does the record list as EC50 for CC[C@@H](C(=O)N[C@H](/C=C/C(=O)OC1CCC1)C[C@@H]1CCNC1=O)n1cccc(NC(=O)c2cc(C)on2)c1=O [Compound 59] ?
12

Give the measured EC50 of CCOC(=O)/C=C/[C@H](C[C@@H]1CCNC1=O)NC(=O)[C@H](Cc1ccc(F)c(F)c1)n1cccc(NC(=O)c2cc(C)on2)c1=O [Compound 33] .
14
